mean fluorescence relative to chimeric antibody for assorted binders
Target: T1, human CD47 (human, UniProt Q08722 19-323)
T1 construct: whole, on cells; also called CD47 on human RBCs; CD47 on OV10 cells
T1 sequence (Q08722 19-323): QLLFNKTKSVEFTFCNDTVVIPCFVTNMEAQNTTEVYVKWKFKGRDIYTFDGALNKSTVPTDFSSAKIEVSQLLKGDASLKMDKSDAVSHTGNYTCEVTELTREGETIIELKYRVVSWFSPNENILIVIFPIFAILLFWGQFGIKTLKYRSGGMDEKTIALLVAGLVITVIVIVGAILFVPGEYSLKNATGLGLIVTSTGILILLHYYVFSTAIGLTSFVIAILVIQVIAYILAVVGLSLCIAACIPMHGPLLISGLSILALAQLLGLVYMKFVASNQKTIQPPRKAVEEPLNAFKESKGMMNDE
Experiment: flow cytometry on RBCs, CHO supernatant 10 ng/ml
State just the number; it will be interpreted in ratio.

Use these answered entries as a reference point.
# binder, units, observed measurement
records = [
    ("chimeric antibody VxP037-01LC-Pro/VxP037-01HC-Pro (antibody, human IgG1, kappa, V domains shown, also called Chimera; VxP037-01LC/VxP037-01HC) VH: EVQLQQFGAELVKPGASMKLSCKASGYTFTNYYVFWVKQRPGQGLEWIGDINPVNGDTNFNEKFKNKATLTVDKSSTTTYLQLSSLTSEDSAVYYCTRGGYTMDYWGQGTLVTVSS VL: DVVMTQTPLSLSVSLGDQASISCRSSQSLVHSNGNTYLHWYLQKPGQSPKLLIYKVSYRFSGVPDRFSGSGSGTDFTLKISRVEAEDLGVYFCSQNTHVPRTFGQGTKVEIKR", "ratio", 1),
    ("Clone 4 (pVxK7b-037-hum04-LC / pVxK7b-037-hum04-HC) (antibody, human IgG1, kappa, V domains shown) VH: QVQLQESGPGLVKPSQTLSLTCTVSGYTFTNYYVFWVRQAPGKGLEWVSDINPVNGDTNFNEKFKNRVTISVDTSKNQFSLKLSSVTAADTAVYYCARGGYTMDYWGQGTLVTVSS VL: DIQMTQSPSSLSASVGDRVTITCRSSQSLVHSNGNTYLHWYLQKPGQSPQLLIYKVSYRFSGIPARFSGSGSGTEFTLTISSLQSEDFAVYYCSQNTHVPRTFGQGTKVEIKR", "ratio", 0.6),
    ("Clone 18 (pVxK7b-037-hum18-LC / pVxK7b-037-hum18-HC) (antibody, human IgG1, kappa, V domains shown) VH: EVQLVQSGAEVKKPGESLRISCKGSGYTFTNYYVFWIRQSPSRGLEWLGDINPVNGDTNFNEKFKNRVTITADKSTSTAYMELSSLRSEDTAVYYCARGGYTMDYWGQGTLVTVSS VL: EIVLTQSPATLSVSPGERATLSCRSSQSLVHSNGNTYLHWYQQKPGQAPRLLIYKVSYRFSGVPSRFSGSGSGTDFTFTISSLEAEDAATYYCSQNTHVPRTFGQGTKVEIKR", "ratio", 1),
]

Pending binder:
Data point: Clone 11 (pVxK7b-037-hum11-LC / pVxK7b-037-hum11-HC) (antibody, human IgG1, kappa, V domains shown, also called Cl 11) VH: QVQLQESGPGLVKPGATVKISCKVSGYTFTNYYVFWVRQARGQRLEWIGDINPVNGDTNFNEKFKNRVTITADKSTSTAYMELSSLRSEDTAVYYCARGGYTMDYWGQGTLVTVSS VL: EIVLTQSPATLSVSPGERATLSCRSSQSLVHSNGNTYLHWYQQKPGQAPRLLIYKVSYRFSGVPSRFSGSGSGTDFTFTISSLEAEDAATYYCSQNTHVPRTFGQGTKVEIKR ; mean fluorescence relative to chimeric antibody = 0.8
